Data credit: patent US20090076029A1

Target: hMC4-R
Construct: expressed in transfected cells; host or cells: HEK-293
Assay: Competitive inhibition assay using [I125]-NDP-α-MSH, hMC4-R membranes
Format: binding, human
Conditions: read-out: Ki (nM) (NDP-α-MSH) MC4-R

compound	subject of test	unit abbreviation	Ki
N=C(N)NCCC[C@H]1CN(CCc2ccc3ccccc3c2)CCN1C(=O)[C@H](N)Cc1ccc(Cl)cc1Cl [Example 18]	hMC4-R	nM	3
Cc1ccc(CCN2C[C@H](CCCNC(=N)N)N(C(=O)[C@H](N)Cc3ccc4ccccc4c3)C[C@H]2C)cc1 [Example 5]	hMC4-R	nM	29
Cc1[nH]c2ccccc2c1CCN1C[C@H](CCCNC(=N)N)N(C(=O)[C@H](N)Cc2ccc3ccccc3c2)C[C@H]1C [Example 9]	hMC4-R	nM	26

====

Biological target: hMC4-R
Construct: expressed in transfected cells; host or cells: HEK-293
Assay type: binding, human
Settings: read-out: Ki (nM) (AgRP) MC4-R
Procedure: Competitive binding assay using [I^125]-AgRP (83-132). […] Binding was measured at radioligand concentrations of 0.2 nM. […] The dried discs were punched out from the plate and counted on a gamma counter. […] Data were analyzed using the Prism Graph-Pad curve fitting software.
log10 Ki values, listed per item
metric name: log10 Ki (log10 of the value in nM)

compound	measured
C[C@@H]1CN(C(=O)[C@H](N)Cc2ccc3ccccc3c2)[C@@H](CCCNC(=N)N)CN1CCc1c[nH]c2ccccc12 [Example 8]	1.75
N=C(N)NCCC[C@H]1C(=O)N2C(CC[C@@H]2COc2ccc3ccccc3c2)N1C(=O)[C@@H](Cc1ccc(Cl)cc1Cl)NC(=O)[C@@H]1Cc2ccccc2CN1 (stereo partly drawn) [Example 23]	0.08
CC(=O)N[C@H](Cc1ccc2ccccc2c1)C(=O)N1C[C@@H](CC(C)C)N(CCc2ccc3ccccc3c2)C[C@@H]1CCCNC(=N)N [Example 13]	0.57
Cc1[nH]c2ccccc2c1CCN1C[C@H](CCCNC(=N)N)N(C(=O)[C@H](N)Cc2ccc3ccccc3c2)C[C@H]1C [Example 9]	1.54
NCCCC[C@H]1C(=O)N(CCc2ccc3ccccc3c2)CCN1C(=O)[C@@H](Cc1ccc(Cl)cc1Cl)NC(=O)/C=C/c1ccccc1 [Example 21]	0.70
N=C(N)NCCC[C@H]1CN(C(=O)Cc2ccc3ccccc3c2)[C@H](Cc2ccccc2)CN1C[C@H](N)Cc1ccc2ccccc2c1 [Example 30]	1.95

====

Molecular target: hMC4-R
Construct: expressed in transfected cells; host or cells: HEK-293
Format: binding, human
Conditions: MC4-R membranes; Table 1; read-out: Ki (nM) I125-AgRP
Protocol: Competitive binding assay using [I^125]-AgRP (83-132). […] Binding was measured at radioligand concentrations of 0.2 nM. […] The dried discs were punched out from the plate and counted on a gamma counter. […] Data were analyzed using the Prism Graph-Pad curve fitting software.
metric name: Ki (nM)

substance	metric name	unit abbreviation	measured
NH2—(CH2)6—C(═O)-Ser(Bzl)-D-Phe(4-Cl)-Arg-Trp-Asp-Phe-NH2 [Example 15]	Ki	nM	0.6

====

Target: hMC4-R
Construct: expressed in transfected cells; host or cells: HEK-293
Assay type: binding, human
Settings: MC4-R membranes; Table 1; read-out: Ki (nM) I125-AgRP
metric name: Ki (nM)

compound	subject of test	metric name	measured
Cc1cc(Cl)ccc1C[C@@H](N)C(=O)N1C[C@@H](C)N(C(=O)Cc2ccc3ccccc3c2)C[C@@H]1CCCNC(=N)N [Example 11]	hMC4-R	Ki	27
CC(=O)N[C@H](Cc1ccc(C)cc1C)C(=O)N1C[C@@H](C)N(CCc2ccc3ccccc3c2)C[C@@H]1CCCNC(=N)N [Example 26]	hMC4-R	Ki	3
Cc1ccc(CCN2C[C@H](CCCNC(=N)N)N(C(=O)[C@H](N)Cc3ccc4ccccc4c3)C[C@H]2C)cc1 [Example 5]	hMC4-R	Ki	42
Cc1ccc(C[C@@H](N)C(=O)N2C[C@@H](C)N(CCc3ccc4ccccc4c3)C[C@@H]2CCCNC(=N)N)c(C)c1 [Example 28]	hMC4-R	Ki	3
N=C(N)NCCC[C@H]1CN(C(=O)Cc2ccc3ccccc3c2)[C@H](Cc2ccccc2)CN1C[C@H](N)Cc1ccc2ccccc2c1 [Example 30]	hMC4-R	Ki	90
CC(C)C[C@@H]1CN(C(=O)[C@H](N)Cc2ccc(Cl)cc2Cl)[C@@H](CCCNC(=N)N)CN1CCc1ccc2ccccc2c1 [Example 4]	hMC4-R	Ki	6
Cc1cc(Cl)ccc1C[C@@H](N)C(=O)N1C[C@@H](C)N(CCc2c[nH]c3ccccc23)C[C@@H]1CCCNC(=N)N [Example 10]	hMC4-R	Ki	5
NCCCC[C@H]1C(=O)N(CCc2ccc3ccccc3c2)CCN1C(=O)[C@@H](Cc1ccc(Cl)cc1Cl)NC(=O)c1ccc(Oc2ccccc2)cc1 [Example 22]	hMC4-R	Ki	0.9
NCCCC[C@H]1C(=O)N(CCc2ccc3ccccc3c2)CCN1C(=O)[C@@H](Cc1ccc(Cl)cc1Cl)NC(=O)/C=C/c1ccccc1 [Example 21]	hMC4-R	Ki	5
C[C@@H]1CN(C(=O)[C@H](N)Cc2ccc3ccccc3c2)[C@@H](CCCNC(=N)N)CN1C(=O)Cc1c[nH]c2ccccc12 [Example 6]	hMC4-R	Ki	83
Cc1[nH]c2ccccc2c1CCN1C[C@H](CCCNC(=N)N)N(C(=O)[C@H](N)Cc2ccc3ccccc3c2)C[C@H]1C [Example 9]	hMC4-R	Ki	35
C[C@@H]1CN(C(=O)[C@H](N)Cc2ccc3ccccc3c2)[C@@H](CCCNC(=N)N)CN1CCc1c[nH]c2ccccc12 [Example 8]	hMC4-R	Ki	56
NCCCC[C@H]1C(=O)N(CCc2ccc3ccccc3c2)CCN1C(=O)[C@@H](Cc1ccc(Cl)cc1Cl)NC(=O)[C@@H]1CC[C@H](c2ccccc2)N1 [Example 19]	hMC4-R	Ki	63
C[C@@H]1CN(C(=O)[C@H](N)Cc2ccc3ccccc3c2)[C@@H](CCCNC(=N)N)CN1C(=O)CCCc1c[nH]c2ccccc12 [Example 7]	hMC4-R	Ki	133
N=C(N)NCCC[C@H]1CN(CCc2ccc3ccccc3c2)CCN1C(=O)[C@H](N)Cc1ccc(Cl)cc1Cl [Example 18]	hMC4-R	Ki	1
N=C(N)NCCC[C@H]1C(=O)N(CCc2c[nH]c3ccccc23)CCN1C(=O)[C@H](N)Cc1ccc(Cl)cc1Cl [Example 2]	hMC4-R	Ki	38
N=C(N)NCCC[C@H]1C(=O)N2C(CC[C@@H]2COc2ccc3ccccc3c2)N1C(=O)[C@@H](Cc1ccc(Cl)cc1Cl)NC(=O)[C@@H]1Cc2ccccc2CN1 (some centres unmarked) [Example 23]	hMC4-R	Ki	1.2
CC(C)C[C@H]1CN(C(=O)[C@H](N)Cc2ccc(Cl)cc2Cl)[C@@H](CCCNC(=N)N)CN1CCc1ccc2ccccc2c1 [Example 3]	hMC4-R	Ki	39
N=C(N)NCCC[C@H]1C(=O)N2C(CC[C@@H]2COc2ccc3ccccc3c2)N1C(=O)[C@@H](Cc1ccc(Cl)cc1Cl)NC(=O)[C@@H]1CC[C@H](c2ccccc2)N1 (some centres unmarked) [Example 20]	hMC4-R	Ki	23
CC(=O)N[C@H](Cc1ccc2ccccc2c1)C(=O)N1C[C@@H](CC(C)C)N(CCc2ccc3ccccc3c2)C[C@@H]1CCCNC(=N)N [Example 13]	hMC4-R	Ki	3.7
